Here the recorded fold difference in affinity vs original is given for each entry.
Molecular target: IL-1β (UniProt P01584 117-269)
Assay: Biacore, Fab periplasmic extract on IL-1β
Answer in fold, number only, no unit symbol.

XPA23 light chain F94P (Fab, V domains shown, Single light chain substitution; Fab in periplasmic extract; also called C5A (XPA23) F94P) VH: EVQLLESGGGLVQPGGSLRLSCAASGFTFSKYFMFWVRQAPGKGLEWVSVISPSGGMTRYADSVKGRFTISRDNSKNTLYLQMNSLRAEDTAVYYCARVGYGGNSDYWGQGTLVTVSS VL: DIQMTQSPSSVSASVGDRLTIICRASQDINRWLAWYQQTPGNAPKLLIHSATSLQSGVPSRFSGSGSGTDFTLTINSLQPEDFATYYCQQADSPPLTFGGGTKVEIK    0.17
XPA23 light chain S53V (Fab, V domains shown, Single light chain substitution; Fab in periplasmic extract; also called C5A (XPA23) S53V) VH: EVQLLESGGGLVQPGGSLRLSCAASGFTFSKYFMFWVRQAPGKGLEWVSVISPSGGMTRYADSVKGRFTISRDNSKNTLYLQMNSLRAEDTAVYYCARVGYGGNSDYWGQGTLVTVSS VL: DIQMTQSPSSVSASVGDRLTIICRASQDINRWLAWYQQTPGNAPKLLIHSATVLQSGVPSRFSGSGSGTDFTLTINSLQPEDFATYYCQQADSFPLTFGGGTKVEIK    1.42

Now examine the next entry.
Query :: For the binder shown here, XPA23 light chain D92A (Fab, V domains shown, Single light chain substitution; Fab in periplasmic extract; also called C5A (XPA23) D92A) VH: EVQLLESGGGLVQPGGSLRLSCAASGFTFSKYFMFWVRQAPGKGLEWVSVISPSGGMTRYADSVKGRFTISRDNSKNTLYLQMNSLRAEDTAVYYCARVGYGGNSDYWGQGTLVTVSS VL: DIQMTQSPSSVSASVGDRLTIICRASQDINRWLAWYQQTPGNAPKLLIHSATSLQSGVPSRFSGSGSGTDFTLTINSLQPEDFATYYCQQAASFPLTFGGGTKVEIK , give the reported fold difference in affinity vs original.
Result :: 0.4
